# system_under_test: D-amino-acid oxidase (Homo sapiens)
# Sequence (P14920 whole entry): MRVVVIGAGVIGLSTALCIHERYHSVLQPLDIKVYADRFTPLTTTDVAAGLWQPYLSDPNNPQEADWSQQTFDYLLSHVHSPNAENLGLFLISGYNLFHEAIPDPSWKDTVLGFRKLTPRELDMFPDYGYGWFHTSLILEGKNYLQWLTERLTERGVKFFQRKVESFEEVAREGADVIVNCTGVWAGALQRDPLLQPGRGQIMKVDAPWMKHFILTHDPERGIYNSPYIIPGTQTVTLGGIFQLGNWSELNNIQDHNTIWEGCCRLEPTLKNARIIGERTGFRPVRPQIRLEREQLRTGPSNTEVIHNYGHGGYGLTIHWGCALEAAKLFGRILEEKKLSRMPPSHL
parameter_measured: Ki (mM)

{"compound": "COC(=O)/C(Cc1ccc(O)cc1)=N\\OCCc1cn(CC(=O)NC(Cc2ccccc2)C(=O)O)nn1 (stereo unspecified)", "value_reported": 1}

---

pKi: −log10 of the molar value.
// pKi collected for Signal transducer and activator of transcription 3 (Homo sapiens, UniProt P40763)
parameter_measured: pKi

{"compound_smiles": "CC(=O)N[C@H](Cc1ccc(OP(=O)(O)O)cc1)C(=O)N[C@@H](C(=O)N[C@@H]1CCCCn2cc(nn2)C[C@H](C(=O)N[C@@H](Cc2ccccc2)C(N)=O)NC(=O)[C@H]([C@@H](C)O)NC1=O)C(C)C", "value_reported": 5.14}
{"compound_smiles": "COC(=O)[C@H](CCCCN)NC(=O)[C@@H](NC(=O)[C@@H](CCCCN)NC(=O)[C@@H](NC(=O)[C@@H](Cc1ccc(OP(=O)(O)O)cc1)NC(C)=O)C(C)C)[C@@H](C)O", "value_reported": 4.66}

---

# system_under_test: Telomerase reverse transcriptase (Homo sapiens)
# Sequence (O14746 whole entry): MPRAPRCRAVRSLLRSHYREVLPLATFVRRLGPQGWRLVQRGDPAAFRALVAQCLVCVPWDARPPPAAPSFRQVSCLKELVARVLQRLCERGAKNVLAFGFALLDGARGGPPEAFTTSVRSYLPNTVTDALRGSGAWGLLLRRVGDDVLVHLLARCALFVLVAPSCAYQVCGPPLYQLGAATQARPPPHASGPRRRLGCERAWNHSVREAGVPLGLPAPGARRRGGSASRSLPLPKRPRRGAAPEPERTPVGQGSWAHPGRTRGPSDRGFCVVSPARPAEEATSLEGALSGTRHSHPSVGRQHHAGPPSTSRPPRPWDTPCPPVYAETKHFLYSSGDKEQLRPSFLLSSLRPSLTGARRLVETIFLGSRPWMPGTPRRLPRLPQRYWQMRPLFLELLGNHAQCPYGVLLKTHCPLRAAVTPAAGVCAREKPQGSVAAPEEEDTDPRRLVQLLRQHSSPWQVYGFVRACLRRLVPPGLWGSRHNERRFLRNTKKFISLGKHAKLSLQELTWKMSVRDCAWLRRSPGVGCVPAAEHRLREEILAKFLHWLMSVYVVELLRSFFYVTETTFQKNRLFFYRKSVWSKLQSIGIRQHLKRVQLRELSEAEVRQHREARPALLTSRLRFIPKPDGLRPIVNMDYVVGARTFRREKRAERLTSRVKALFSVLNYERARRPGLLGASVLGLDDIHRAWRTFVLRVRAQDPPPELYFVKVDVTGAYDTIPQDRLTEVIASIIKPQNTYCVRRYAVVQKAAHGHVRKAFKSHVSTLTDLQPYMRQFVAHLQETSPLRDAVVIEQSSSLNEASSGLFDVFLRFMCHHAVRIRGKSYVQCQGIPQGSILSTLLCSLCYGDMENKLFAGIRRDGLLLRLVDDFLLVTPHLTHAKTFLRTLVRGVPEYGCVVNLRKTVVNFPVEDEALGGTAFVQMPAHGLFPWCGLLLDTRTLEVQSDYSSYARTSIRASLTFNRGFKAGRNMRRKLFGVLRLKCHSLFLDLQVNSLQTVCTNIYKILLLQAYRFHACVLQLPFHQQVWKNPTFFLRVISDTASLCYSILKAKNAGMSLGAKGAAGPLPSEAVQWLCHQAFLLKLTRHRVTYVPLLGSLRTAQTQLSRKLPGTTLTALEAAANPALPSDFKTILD
# test_name: Inhibition of telomerase activity in human A2780 cells incubated for 10 mins by SYBR Green 1 staining based TRAP assay
parameter_measured: EC50 (µM)

{"compound_smiles": "O=C(CCN1CCCC1)Nc1ccc(-n2cc(-c3cccc(-c4cn(-c5ccc(NC(=O)CCN6CCCC6)cc5)nn4)c3)nn2)cc1", "parameter_measured": "EC50", "value_reported": 13.3}
{"compound_smiles": "O=C(CCN1CCCCC1)Nc1ccc(-n2cc(-c3cccc(-c4cn(-c5ccc(NC(=O)CCN6CCCCC6)cc5)nn4)c3)nn2)cc1", "parameter_measured": "EC50", "value_reported": 17.1}
{"compound_smiles": "CCN(CC)CCC(=O)Nc1ccc(-n2cc(-c3cccc(-c4cn(-c5ccc(NC(=O)CCN(CC)CC)cc5)nn4)c3)nn2)cc1", "parameter_measured": "EC50", "value_reported": 23.5}

---

# system_under_test: Protease (Human immunodeficiency virus 1)

{"compound_smiles": "COc1ccc(S(=O)(=O)N(CC(C)C)C[C@H](O)[C@@H](Cc2ccccc2)n2cc(COC(=O)N[C@H]3c4ccccc4C[C@H]3O)nn2)cc1", "unit_info": "nM", "Ki": 1.7}

---

# system_under_test: Protease (Human immunodeficiency virus 1, UniProt Q9YQ12, V82A)
# Sequence (Q9YQ12 entry or part of it V82A): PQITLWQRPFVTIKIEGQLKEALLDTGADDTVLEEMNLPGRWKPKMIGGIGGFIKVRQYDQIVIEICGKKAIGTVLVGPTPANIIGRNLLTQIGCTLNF
# test_name: Inhibition of HIV-1 protease V82A mutant
pKi: −log10 of the molar value.

{"compound_smiles": "COc1ccc(S(=O)(=O)N(CC(C)C)C[C@H](O)[C@@H](Cc2ccccc2)n2cc(COC(=O)N[C@H]3c4ccccc4C[C@H]3O)nn2)cc1", "pKi": 8.77}

---

# system_under_test: Protease (Human immunodeficiency virus 1, UniProt Q9YQ12, G48V)
# Sequence (Q9YQ12 entry or part of it G48V): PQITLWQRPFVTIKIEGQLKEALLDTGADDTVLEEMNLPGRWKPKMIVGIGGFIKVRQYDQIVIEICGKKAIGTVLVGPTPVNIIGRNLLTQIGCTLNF
# test_name: Inhibition of HIV-1 protease G48V mutant
pKi: −log10 of the molar value.

{"compound_smiles": "COc1ccc(S(=O)(=O)N(CC(C)C)C[C@H](O)[C@@H](Cc2ccccc2)n2cc(COC(=O)N[C@H]3c4ccccc4C[C@H]3O)nn2)cc1", "system_under_test": "Protease (Human immunodeficiency virus 1, UniProt Q9YQ12, G48V)", "pKi": 8.77}

---

# system_under_test: Tyrosinase (Agaricus bisporus, UniProt O42713)
# Sequence (O42713 whole entry): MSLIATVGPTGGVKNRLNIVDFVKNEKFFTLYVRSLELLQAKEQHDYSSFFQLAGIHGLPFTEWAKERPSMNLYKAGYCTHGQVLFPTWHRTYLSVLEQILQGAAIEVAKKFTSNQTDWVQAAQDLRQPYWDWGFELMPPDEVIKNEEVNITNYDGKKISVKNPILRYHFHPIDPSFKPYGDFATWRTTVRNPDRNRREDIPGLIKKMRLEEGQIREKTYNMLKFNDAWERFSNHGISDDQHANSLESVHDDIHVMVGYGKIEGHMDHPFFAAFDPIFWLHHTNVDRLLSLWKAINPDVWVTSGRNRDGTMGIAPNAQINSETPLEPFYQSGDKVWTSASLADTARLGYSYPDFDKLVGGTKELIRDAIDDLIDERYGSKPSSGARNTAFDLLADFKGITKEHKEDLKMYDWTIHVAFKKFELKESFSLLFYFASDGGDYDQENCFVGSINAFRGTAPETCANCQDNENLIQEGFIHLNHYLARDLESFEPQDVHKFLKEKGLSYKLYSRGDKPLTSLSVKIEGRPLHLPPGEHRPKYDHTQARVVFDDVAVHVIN
# test_name: Inhibition of mushroom tyrosinase using L-DOPA as substrate
Where a SMILES comes first, the peptide text is derived from it.
parameter_measured: IC50

{"compound": "CC(C)[C@@H]1NC(=O)[C@@H]2CCCN2C(=O)[C@H](Cc2ccc(OCc3ccccc3)cc2)n2cc(nn2)[C@@H]2CCCN2C1=O", "parameter_measured": "IC50", "value_reported": "500 µM"}
{"compound": "CC(C)[C@@H]1NC(=O)[C@@H]2CCCN2C(=O)[C@H](Cc2ccc(O)cc2)NC(=O)[C@@H]2CCCN2C1=O (cyclo(PVPY))", "parameter_measured": "IC50", "value_reported": "1500 µM"}

Data provenance is ChEMBL document CHEMBL4354790.
